// provenance: patent US20220041647A1

assay.comment: Metabolic stability assay, human hepatocyte incubations
Type: in vitro ADME
stated.conditions: compound 1 μM, human hepatocytes, 0-60 min at 37° C.; read-out: Human hepatocytes MetStab T½ min
recorded.endpoint: half-life at 1 μM (min)
Answers are plain numbers, in min.

Record half-life at 1 μM for all entries; do not skip any.
1. C[C@]12CCC3c4ccccc4CCC3C1[C@H](CCC(=O)Nc1cc(F)ccn1)c1c[nH]nc12 (stereo partly shown) [Compound 162]
2. C[C@]12CCC3c4cccc(F)c4CCC3C1[C@H](CCC(=O)N1CCCC1)c1c[nH]nc12 (stereo partly shown) [Compound 210]
3. Cn1ccc(NC(=O)CC[C@@H]2c3c[nH]nc3[C@@]3(C)CCC4c5cccc(F)c5CCC4C23)n1 (stereo partly shown) [Compound 54]
4. CN(C)C(=O)CC[C@@H]1c2c[nH]nc2[C@@]2(C)CCC3c4cccc(F)c4CCC3C12 (stereo partly shown) [Compound 222]
5. C[C@]12CCC3c4cccc(F)c4CCC3C1[C@H](CCC(=O)N1Cc3ccccc3C1)c1c[nH]nc12 (stereo partly shown) [Compound 57]

83
11
68
12
58

I would be grateful if you could provide half-life at 1 μM for each of the following entries.
1. CN(CC(C)(C)O)C(=O)CC[C@@H]1c2c[nH]nc2[C@@]2(C)CCC3c4cccc(F)c4CCC3C12 (stereo partly shown) [Compound 243]
2. C[C@]12CCC3c4ccccc4CCC3C1[C@H](CCC(=O)N1CCCC1)c1c[nH]nc12 (stereo partly shown) [Compound 147]

1. 15
2. 9

====

Consider the following compounds; for each one, report its inhibition at 1 µM.
study.system: recombinant human 17β-HSD2 (Homo sapiens)
Construct: made in house; host or cells: Sd9 (Sf9) insect cells, baculovirus (Bac to Bac Expression System)
Sequence (P37059 1-387): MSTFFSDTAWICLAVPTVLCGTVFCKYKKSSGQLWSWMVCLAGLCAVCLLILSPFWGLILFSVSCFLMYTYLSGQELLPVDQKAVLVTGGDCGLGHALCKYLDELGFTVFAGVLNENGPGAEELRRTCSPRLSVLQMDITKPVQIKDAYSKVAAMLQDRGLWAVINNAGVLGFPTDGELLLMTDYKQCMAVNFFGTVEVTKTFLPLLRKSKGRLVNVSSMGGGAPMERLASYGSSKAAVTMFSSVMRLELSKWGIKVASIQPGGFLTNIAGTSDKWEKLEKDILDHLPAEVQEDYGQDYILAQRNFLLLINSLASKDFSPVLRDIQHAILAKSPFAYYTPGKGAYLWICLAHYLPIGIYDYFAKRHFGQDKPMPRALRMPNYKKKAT
assay.comment: Inhibition of recombinant human 17β-HSD2 (estradiol to estrone conversion, HPLC/radioactivity)
Format: biochemical
stated.conditions: compound 1 μM; 50 nM estradiol, 1 mM NADH, 30 min RT
Give bare numbers, in %.

Use the examples below as a reference point.
| compound | unit.spec | reported.value |
| --- | --- | --- |
| CC(C)(C)c1cc(NC(=O)CC[C@@H]2c3c[nH]nc3[C@@]3(C)CCC4c5ccc(F)cc5CCC4C23)no1 (stereo partly drawn) | % | 8 |
| COc1ccc(NC(=O)CC[C@@H]2c3c[nH]nc3[C@@]3(C)CCC4c5cccc(F)c5CCC4C23)nn1 (stereo partly drawn) | % | 8 |
| C[C@]12CCC3c4cccc(F)c4CCC3C1[C@H](CCC(=O)Nc1cccc(F)n1)c1c[nH]nc12 (stereo partly drawn) | % | 1 |

Each of the following entries comes with a recorded value; kindly state inhibition at 1 µM for each.
1. C[C@]12CCC3c4ccc(Cl)cc4CCC3C1[C@H](CCC(=O)Nc1cc3c([nH]c1=O)CCCC3)c1c[nH]nc12 (stereo partly drawn)
2. C[C@]12CCC3c4ccc(F)cc4CCC3C1[C@H](CCC(=O)Nc1cccc(F)n1)c1c[nH]nc12 (stereo partly drawn)
3. C[C@]12CCC3c4cccc(F)c4CCC3C1[C@H](CCC(=O)N1Cc3ccccc3C1)c1c[nH]nc12 (stereo partly drawn)

[8, 9, 16]

Provide inhibition at 1 µM for all items below, preserving their order.
1. C[C@]12CCC3c4cccc(F)c4CCC3C1[C@H](CCC(=O)N1CCOCC1)c1c[nH]nc12 (stereo partly drawn)
2. CN(CC1CC1)C(=O)CC[C@@H]1c2c[nH]nc2[C@@]2(C)CCC3c4ccccc4CCC3C12 (stereo partly drawn)
3. C[C@]12CCC3c4ccccc4CCC3C1[C@H](CCC(=O)Nc1ccc(N3CCOCC3)cn1)c1c[nH]nc12 (stereo partly drawn)
4. C[C@]12CCC3c4cccc(F)c4CCC3C1[C@H](CCC(=O)Nc1ncc(F)cc1F)c1c[nH]nc12 (stereo partly drawn)

0
10
7
3

Items follow; give inhibition at 1 µM for each.
1. CN(C)C(=O)c1ccc(NC(=O)CC[C@@H]2c3c[nH]nc3[C@@]3(C)CCC4c5cccc(F)c5CCC4C23)nc1 (stereo partly drawn)
2. COc1ccc(NC(=O)CC[C@@H]2c3c[nH]nc3[C@@]3(C)CCC4c5cccc(F)c5CCC4C23)nc1 (stereo partly drawn)

1: 8; 2: 4
